MEASUREMENT_PROTOCOL: probe aInhba binding on compound microarray – biochemical, small-molecule microarray, 635/667 nm fluorescence, primary screen (AID 1148);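 further: score merges 667nm spot fluorescence with signal-to-noise for antibody binding to printed compounds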
CONDITION_DESCRIPTION: higher = more signal
Binary call on composite z-score: Fulfilled from -0.03 upward, Not fulfilled beneath that.

- COMPOUND: "NC(=O)N1C(=O)C2C(C1=O)C1C=C(CCCO)C2C(c2ccc(CN3CCCC3)cc2)N1Cc1cc2c(cc1Br)OCO2 (configuration not stated)"
  CLASS: "Not fulfilled"
- COMPOUND: "C=CCC(OC(C)=O)[C@@H]1[C@@H](N(Cc2ccc(-c3cccc(C(F)(F)F)c3)o2)C(=O)c2ccc(-c3ccccc3)cc2)c2cc(OCCCO)ccc2N1C(=O)c1ccc2ccccc2c1 (some centres not stated)"
  CLASS: "Fulfilled"
- COMPOUND: "C=CCOC(=O)[C@@H]1[C@H]2C(=O)O[C@H](c3ccccc3)[C@H](c3ccccc3)N2[C@H](c2ccc(OCCOC(=O)[C@H]3C[C@H]4C(=O)N[C@@H](CCCCN(C)C)C(=O)N4[C@H]3c3ccc(O)cc3)cc2)[C@@]12C(=O)Nc1ccc(I)cc12"
  CLASS: "Fulfilled"
- COMPOUND: "C=C1C(=O)C=C2CN(C(=O)c3ccccc3)[C@@](Cc3ccc(OC)cc3)(C(=O)OC)[C@@H]12"
  CLASS: "Fulfilled"
- COMPOUND: "CCOC(=O)C1=C[C@@H](C(C)(C)C)N(S(=O)(=O)c2ccc(C)cc2)[C@H]1c1ccc(C#N)cc1"
  CLASS: "Fulfilled"
- COMPOUND: "CN(C)c1ccc(C(O)C2C=CC3C(=O)N(Cc4ccccc4)C(=O)C3N2n2cnnc2)cc1 (configuration not stated)"
  CLASS: "Not fulfilled"
- COMPOUND: "CN1C(=O)C2C(C3CC3)C=C3CN(Cc4cccc(Cl)c4)[C@@H]([C@@H](O)Cc4ccccc4)C3C2C1=O (some centres not stated)"
  CLASS: "Fulfilled"

----------
MEASUREMENT_PROTOCOL: JC-1 mitochondrial signal, unstimulated myeloma cells – cell-based, JC-1 fluorescence, RPMI8226, 24 h, 100 nL compound, profiling panel (AID 1169); further: test concentration not given here
CONDITION_DESCRIPTION: JC-1 mitochondrial potential fluorescence, higher = more signal

- STRUCTURE_SMILES: "C=C(CCCC)/C(=C/C[C@H](OC(=O)c1ccncc1)c1cccc(OCCO)c1)c1cnc2ccccc2c1"
  z-score: -0.817
- STRUCTURE_SMILES: "CO[C@H]1O[C@H](CO)[C@@H](OC(=O)Nc2ccc3c(c2)OCO3)[C@H](OC(=O)Nc2ccccc2-c2ccccc2)[C@H]1OC(=O)Nc1ccccc1-c1ccccc1"
  z-score: -0.819
- STRUCTURE_SMILES: "COc1ccc([Si](C)(C)[C@@H]2[C@@H](CC(=O)N3Cc4ccccc4C[C@H]3CO)O[C@]3(C(=O)N(Cc4ccc(N5CCOC5=O)cc4)c4ccccc43)[C@H]2C)cc1"
  z-score: -1.11

----------
MEASUREMENT_PROTOCOL: calcein-AM signal in unstimulated myeloma cells – cell-based, calcein-AM fluorescence, 48 h, PK04 Diversity Set, profiling panel (AID 1166);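 further: cells grown under basal conditions without added stimulus; test concentration not given here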
CONDITION_DESCRIPTION: RPMI8226 myeloma viability, higher = more signal

- COMPOUND: "CC1CC/C=C\\[C@H]2OC34C=CCN(Cc5ccccc5)C(=O)[C@H]3N(CCCCCCO)C(=O)[C@@H]4C2C(=O)O1 (some centres undefined)"
  z-score: 0.0497
- COMPOUND: "C=CCC(OC(C)=O)[C@@H]1[C@@H](N(Cc2ccc(-c3cccc(C(F)(F)F)c3)o2)C(=O)Cc2ccc(F)cc2)c2cc(OCCCO)ccc2N1C(=O)Cc1ccc2ccccc2c1 (some centres undefined)"
  z-score: -0.261
- COMPOUND: "[N-]=[N+]=Nc1ccccc1[C@@H]1OC(c2ccc(OCCCO)cc2)=N[C@]1(Cc1ccccc1)C(=O)NCCN1CCOCC1"
  z-score: -4.18
- COMPOUND: "CCN(CC)c1ccc(N2CC=CC34O[C@@H]5C=CCCOC(=O)C5[C@H]3C(=O)N(C(C)CO)[C@@H]4C2=O)cc1 (some centres undefined)"
  z-score: 0.333

----------
MEASUREMENT_TARGET: Calmodulin-1 (Homo sapiens) (UniProt P0DP23)
MEASUREMENT_PROTOCOL: small molecules binding Ca-loaded calmodulin-1 – biochemical, small-molecule microarray, Cy5-labelled CALM1, plus calcium, artefact control for SMM control-protein annotation, profiling panel (AID 1112);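 further: score merges spot fluorescence with signal to noise from triplicate slides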
CONDITION_DESCRIPTION: Cy5-CALM1 binding fluorescence, higher = more signal

- STRUCTURE_SMILES: "O=C1O[C@H](c2ccccc2)[C@H](c2ccccc2)N2[C@H]1[C@@H](C(=O)N1CCN(c3ncccn3)CC1)[C@]1(C(=O)Nc3ccc(C#CCCO)cc31)[C@H]2c1ccc(O)cc1"
  composite z-score: 0.323
- STRUCTURE_SMILES: "O=C(NCCN1CCOCC1)[C@@H]1c2ccccc2C(=O)N(Cc2ccc(OC(F)(F)F)cc2)[C@H]1c1ccc(CO)cc1"
  composite z-score: 0.337
- STRUCTURE_SMILES: "COC(=O)[C@]1(CCC(=O)OC(C)(C)C)N=C(c2ccc(OCCCO)cc2)O[C@@H]1c1ccccc1N=[N+]=[N-]"
  composite z-score: -0.875
- STRUCTURE_SMILES: "C=CCNC(=O)[C@@H]1[C@H]2C(=O)O[C@H](c3ccccc3)[C@H](c3ccccc3)N2[C@H](c2ccc(OCCO)cc2)[C@@]12C(=O)Nc1ccc(C#CC3(O)CCCCCC3)cc12"
  composite z-score: 0.0835
- STRUCTURE_SMILES: "COCCCNC(=O)[C@@]1(CCC(=O)OC(C)(C)C)COC(c2ccc(OCCCO)cc2)=N1"
  composite z-score: -0.0486
- STRUCTURE_SMILES: "COc1ccc(C(=O)Nc2ccc(CN3C(=O)[C@@]4(O[C@@H](CCn5cc(CCO)nn5)[C@H]([Si](C)(C)c5ccc(OC)cc5)[C@H]4C)c4ccccc43)cc2)cc1"
  composite z-score: -0.668
- STRUCTURE_SMILES: "COCCOC(=O)N1C(=O)[C@@]2(c3cc(C#CCC(C(=O)OC)C(=O)OC)ccc31)[C@H](C(=O)Nc1nc3ccccc3s1)[C@H]1C(=O)O[C@H](c3ccccc3)[C@H](c3ccccc3)N1[C@@H]2c1ccc(O)cc1"
  composite z-score: -0.0869
- STRUCTURE_SMILES: "COCCOC(=O)N1C(=O)[C@@]2(c3cc(C#Cc4ccc(OC)cc4)ccc31)[C@H](c1ccc(OCCO)cc1)N1[C@H](c3ccccc3)[C@H](c3ccccc3)OC(=O)[C@H]1[C@@H]2C(=O)NC[C@H](O)c1ccccc1"
  composite z-score: 0.842
- STRUCTURE_SMILES: "COC(=O)[C@@]1(Cc2ccc(OC)cc2)[C@H]2c3cc(C(=O)N4CCCC4)n(CCn4cc([N+](=O)[O-])nc4C)c3C[C@H]2CN1C(=O)c1ccccc1"
  composite z-score: 1.21
- STRUCTURE_SMILES: "O=C(NC1CC1)[C@@H]1c2ccccc2C(=O)N(Cc2cc(C(F)(F)F)cc(C(F)(F)F)c2)[C@H]1c1ccc(CO)cc1"
  composite z-score: -0.366
- STRUCTURE_SMILES: "C[C@@H]1ON(c2ccc(I)cc2)[C@H](c2cccc(NC(=O)OCC3c4ccccc4-c4ccccc43)c2)[C@H]1C(=O)N1C(=O)OC[C@H]1Cc1ccccc1"
  composite z-score: -0.435
- STRUCTURE_SMILES: "COc1ccc([Si](C)(C)[C@H]2[C@H](CC(=O)N3Cc4ccccc4C[C@H]3CO)O[C@@]3(C(=O)N(C)c4ccccc43)[C@@H]2C)cc1"
  composite z-score: -1.29

----------
Each record here notes measured composite z-score.
MEASUREMENT_PROTOCOL: probe aEGFR binding to arrayed compounds – biochemical, biotinylated probe, 635/667 nm fluorescence, primary screen (AID 1097);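 further: probe is a biotinylated anti-EGFR antibody binding compounds printed on slides; score combines fluorescence near 667 nm and signal to noise of each spot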
CONDITION_DESCRIPTION: small-molecule microarray, higher = more signal
MEASURED_PARAMETER: composite z-score

- MOLECULE: "COC(=O)C(CC#Cc1ccc2c(c1)[C@]1(C(=O)N2)[C@H](c2ccc(OCCO)cc2)N2[C@H](c3ccccc3)[C@H](c3ccccc3)OC(=O)[C@H]2[C@@H]1C(=O)N1CCCCCCC1)C(=O)OC"
  MEAS_VALUE: 1.17
- MOLECULE: "CC(C)NC(=O)[C@@]1(c2ccc([N+](=O)[O-])cc2)CC(=O)N(CC23CC4CC(CC(C4)C2)C3)[C@@H]1c1ccc(CO)cc1"
  MEAS_VALUE: 0.837
- MOLECULE: "O=C(NCc1ccccc1)[C@@H]1c2ccccc2C(=O)N(Cc2ccc(OC(F)(F)F)cc2)[C@H]1c1ccc(CO)cc1"
  MEAS_VALUE: 0.148
- MOLECULE: "COc1cc(C(O)C2C=CC3C(=O)N(c4ccccc4)C(=O)C3N2Nc2ccccc2F)cc(OC)c1OC (stereo not drawn)"
  MEAS_VALUE: -0.027
- MOLECULE: "C=CCNC(=O)[C@H]1[C@@H]2C(=O)O[C@@H](c3ccccc3)[C@@H](c3ccccc3)N2[C@@H](c2ccccc2OCCO)[C@]12C(=O)N(C(=O)OCCOC)c1ccc(C#Cc3ccc(OC)cc3)cc12"
  MEAS_VALUE: -0.092
- MOLECULE: "O=C1[C@H]2C=C(I)[C@H](C[C@@H]2OCCCCCCO)[C@@]12CO2"
  MEAS_VALUE: -0.133
- MOLECULE: "CC1CC/C=C\\[C@H]2OC34C=CCN(Cn5nnc6ccccc65)C(=O)[C@H]3N(CCCCCCO)C(=O)[C@@H]4C2C(=O)O1 (stereo partly drawn)"
  MEAS_VALUE: -0.33
- MOLECULE: "[N-]=[N+]=Nc1ccccc1[C@@H]1OC(c2ccc(OCCCO)cc2)=N[C@]1(CCS(=O)(=O)c1ccccc1)C(=O)NCC(O)CO (stereo partly drawn)"
  MEAS_VALUE: -0.147
- MOLECULE: "COc1ccc(C#Cc2ccc3c(c2)[C@]2(C(=O)N3)[C@H](C(=O)O)[C@H]3C(=O)O[C@H](c4ccccc4)[C@H](c4ccccc4)N3[C@@H]2c2ccccc2OCCO)cc1"
  MEAS_VALUE: 0.0458
- MOLECULE: "C=CC[C@]1(C(=O)NCC(O)CO)COC(c2ccc(OCCCO)cc2)=N1 (stereo partly drawn)"
  MEAS_VALUE: 0.0444
- MOLECULE: "O=C1O[C@@H](c2ccccc2)[C@@H](c2ccccc2)N2[C@@H](c3ccc(OCCO)cc3)[C@]3(C(=O)Nc4ccc(C#CC5(O)CCCCCC5)cc43)[C@@H](C(=O)Nc3nc4ccccc4s3)[C@H]12"
  MEAS_VALUE: 0.191
- MOLECULE: "CC(C)OC(=O)CC(=O)CC(O)c1cccc([N+](=O)[O-])c1 (stereo not drawn)"
  MEAS_VALUE: -0.0215
- MOLECULE: "C[C@@H]1ON(c2ccccc2)[C@H](c2ccccc2)[C@H]1C(=O)O"
  MEAS_VALUE: 0.203
- MOLECULE: "COCCn1c(C(=O)N(C)C)cc2c1C[C@H]1CN(C(=O)c3ccccc3)[C@@](Cc3ccc(OC)cc3)(C(=O)OC)[C@@H]21"
  MEAS_VALUE: 0.0634
- MOLECULE: "[N-]=[N+]=Nc1ccccc1[C@H]1OC(c2ccc(OCCCO)cc2)=N[C@@]1(Cc1ccccc1)C(=O)NCC(O)CO (stereo partly drawn)"
  MEAS_VALUE: -0.0226
- MOLECULE: "COC(=O)[C@@]1(Cc2ccc(OC)cc2)[C@H]2c3cc(C(=O)N4CCCC4)n(Cc4c(CO)[nH]cc(C)c4=O)c3C[C@H]2CN1C(=O)c1ccccc1"
  MEAS_VALUE: -0.0728
- MOLECULE: "CO[C@H]1O[C@H](CO)[C@@H](OC(=O)Nc2ccccc2)[C@H](OC(=O)Nc2ccccc2)[C@H]1OC(=O)Nc1ccccc1"
  MEAS_VALUE: -0.0978
- MOLECULE: "[N-]=[N+]=Nc1ccccc1[C@@H]1OC(c2ccc(OCCCO)cc2)=N[C@]1(Cc1ccccc1)C(=O)NCCN1CCOCC1"
  MEAS_VALUE: -0.0106
- MOLECULE: "C[N+](C)(C)CCCC[C@@H]1NC(=O)[C@H]2C[C@@H](C(=O)NCCCCCNC(=O)CS)[C@@H](c3cccc(OCCO)c3)N2C1=O"
  MEAS_VALUE: -0.127
- MOLECULE: "COCCOC(=O)N1C(=O)[C@@]2(c3cc(C#CCCO)ccc31)[C@H](c1ccccc1OCCO)N1[C@H](c3ccccc3)[C@H](c3ccccc3)OC(=O)[C@H]1[C@@H]2C(N)=O"
  MEAS_VALUE: 0.0111
- MOLECULE: "CN1C(=O)C2C(C1=O)C1C=C(c3ccc(CO)cc3)C2C(C2CC2)N1C (stereo not drawn)"
  MEAS_VALUE: -0.229
- MOLECULE: "COCCOC(=O)N1C(=O)[C@@]2(c3cc(C#CCC(C(=O)OC)C(=O)OC)ccc31)[C@H](c1ccc(O)cc1)N1[C@H](c3ccccc3)[C@H](c3ccccc3)OC(=O)[C@H]1[C@@H]2C(=O)Nc1nc2ccccc2s1"
  MEAS_VALUE: 0.106
- MOLECULE: "C=CC1c2cc(O)c(OC)cc2CCN1C (stereo not drawn)"
  MEAS_VALUE: -0.135
- MOLECULE: "COc1ccc(C(O)C2C=CC3C(=O)NC(=O)C3N2Nc2ccc(Cl)cc2Cl)c2ccccc12 (stereo not drawn)"
  MEAS_VALUE: -0.176
- MOLECULE: "N#Cc1ccc(NN2C(C(O)C3CC=CCC3)C=CC3C(=O)N(c4ccccc4)C(=O)C32)cc1 (stereo not drawn)"
  MEAS_VALUE: 0.0149
- MOLECULE: "O=C1[C@@H]2[C@@H](CC(COc3ccccc3)=C([C@H](O)CCc3ccccc3)[C@@H]2CO)C(=O)N1Cc1ccccc1"
  MEAS_VALUE: -0.0828
- MOLECULE: "COc1ccc([Si](C)(C)[C@@H]2[C@@H](CC(=O)N(CCO)Cc3ccccc3)O[C@]3(C(=O)N(Cc4ccc(N5C(=O)c6cccc7cccc5c67)cc4)c4ccccc43)[C@H]2C)cc1"
  MEAS_VALUE: -0.116
- MOLECULE: "COC(=O)[C@@]1(Cc2ccc(OC)cc2)[C@H]2c3cc(C(=O)N4CCCC4)n(Cc4ccc(C(F)(F)F)nc4)c3C[C@H]2CN1C(=O)c1ccccc1"
  MEAS_VALUE: 0.131
